- ASSAY_SYSTEM: T1, postfusion RSV F ectodomain, subtype B (respiratory syncytial virus subtype B)
- T1 construct: extracellular domain; also called Postfusion subtype B
- T1 sequence (P13843 26-109, chain 1 of 2): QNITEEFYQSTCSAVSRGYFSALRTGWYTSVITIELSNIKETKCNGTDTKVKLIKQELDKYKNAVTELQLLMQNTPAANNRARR
- T1 sequence (P13843 147-513, chain 2 of 2): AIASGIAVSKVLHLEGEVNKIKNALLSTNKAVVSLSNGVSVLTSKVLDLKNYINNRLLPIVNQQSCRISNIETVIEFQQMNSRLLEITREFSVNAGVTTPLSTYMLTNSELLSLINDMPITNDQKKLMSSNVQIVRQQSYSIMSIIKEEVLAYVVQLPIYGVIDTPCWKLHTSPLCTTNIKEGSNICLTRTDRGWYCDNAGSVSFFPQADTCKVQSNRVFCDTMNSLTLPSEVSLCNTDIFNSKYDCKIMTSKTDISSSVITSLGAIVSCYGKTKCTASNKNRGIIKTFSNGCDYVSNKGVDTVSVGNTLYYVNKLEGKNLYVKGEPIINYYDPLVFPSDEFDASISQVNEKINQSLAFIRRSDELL
- EXPERIMENTAL_DETAILS: BLI, IgG on sensor
EXPERIMENTAL_READOUT: log10 Kd (log10 of the value in nM)
Note: values are log10 of Kd expressed in nM.

Item under review: ADI-15667 (antibody, V domains shown, IgG) VH: EVQLVESGGGLVQPGGSLRLSCAASGFTFSDFSMSWVRQAPGKGLEWVSLIKSSGYAYYADSVRGRFTISRDNSKNTLYLQMNSLRAEDTAIYYCAKDADFWSGAAYNGGYNFDSWGQGTLVTVSS VL: DIQMTQSPATLSVFPGDRATLSCRASQSVGSNLAWYQQKPGQAPRLLIFGASTRATGIPARFSGSGSGTEFTLTISSLQSEDFAVYYCQQYHNWPPLTFGGGTKVDIK . Reported log10 Kd?
-0.68

Item under review: ADI-15658 (antibody, V domains shown, IgG) VH: EVQLVESGGGLVQPGRSLRLSCVTSGFGFDDYAMHWVRQAPGKGLEWVSGIGWNSGGIGYADSVKGRFSISRDNAKNSLYLQMNSLRPEDTAFYYCVKDGTPIAVAGYFEYWGQGTLVTVSS VL: SYELTQPPSASGTPGQRVTISCSGGRSNIGNNYVYWYQQLPGTAPKLLIYRHDQRPSGVPDRFSGSKSGTSASLAINGLRSEDEADYFCAVWDDSLSCYVFGAGTKLTVL . Reported log10 Kd?
-0.77

Item under review: ADI-15646 (antibody, V domains shown, IgG; also called Antibody Number 210) VH: EVQLLESGGGLIQPGGSLRLSCGASGFTVTGNYMHWVRQAPGKGLEWVSVIYAGSSTYYADSVRGRFTISRDKARNTLFLQMNRLRAEDTAVYYCARAGVVGEDRSGWYGPDYFHGLDVWGQGTTVTVSS VL: ETTLTQSPGTLSLSPGERATLSCRASQSIRNNYLAWYQQKPGQPPRLLIYGESRRATGIPGRFSGSGSGTDFTLTISSLEPEDFAVYYCQQYGGSPYTFGQGTKVDIK . Reported log10 Kd?
0.50

Item under review: ADI-15561 (antibody, V domains shown, IgG; also called Antibody Number 132) VH: QVQLVQSGAEVKKPGSSVKVSCKASGGTFSSYAINWVRQAPGQGLEWMGGIIPAFGTTIYAQRFQDRVTITADKSTSTAYMELRSLRSEDTAVYYCARSPPFWSDYSRGWFDPWGQGTLVTVSS VL: ETTLTQSPSALSASVGDRVTITCRASQTISGYLNWYQQKPGKAPKLLIYAASSLQSGVPSRFSGSSAGTDFTLSISNLQPEDFATYYCQQSYTTPWTFGQGTKVEIK . Reported log10 Kd?
0.03

Item under review: ADI-15659 (antibody, V domains shown, IgG; also called Antibody Number 223) VH: QVQLVQSGAEVKKPGSSVKVSCKASGGTFSTYGISWVRQAPGQGLEWMGRVIPMFGTATYAQKFQDRVTITADKATSTAYMELNSLRSDDTAVYYCARCPPFEGVRPPWFDPWGQGTLVTVSS VL: SYELTQPPSVSVAPGRTAKITCGGYNIGNKRVHWYRQRPGQAPVLIVYDNADRPSGIPERFSGSNSGNTATLTISNVAAGDEADYHCQVWETSSDHPVFGGGTKLTVL . Reported log10 Kd?
0.56
